target: REV-ERBα LBD (human; residues 281-614 Δ324-422) (Homo sapiens, UniProt P20393, DEL324-422); construct: 6×Histag-REV-ERBα LBD (human; residues 281-614 Δ324-422); made in house; host or cells: Escherichia coli; assay: TR-FRET corepressor interaction assay (REV-ERBα LBD, FITC-SMRT peptide); assay type: biochemical; details: Table 2, read-out: REVERBα agonism (EC50 class, FRET assay)
Sequence (P20393 with tags, fused parts or gaps DEL324-422): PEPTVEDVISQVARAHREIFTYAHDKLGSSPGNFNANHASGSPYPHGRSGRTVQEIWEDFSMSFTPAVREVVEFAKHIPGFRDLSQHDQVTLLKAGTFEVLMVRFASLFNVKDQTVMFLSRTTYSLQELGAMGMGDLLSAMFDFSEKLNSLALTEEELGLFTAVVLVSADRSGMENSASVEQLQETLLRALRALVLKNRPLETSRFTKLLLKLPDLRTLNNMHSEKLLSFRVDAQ
Sequence (Q9Y618 2335-2356 partner limits assumed): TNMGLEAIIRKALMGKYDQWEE
pEC50: −log10 of the molar value.
pEC50: recorded values

**Q:** # pEC50 lookup, item CC(C)Cn1cc([C@H](NS(=O)(=O)C2CC2)C(F)(F)F)c2ccc(-c3ccc(F)cc3)cc21
**A:** 5.52 to 6.30

---

molecular target: REV-ERBα LBD (human; residues 281-614 Δ324-422) (Homo sapiens, UniProt P20393, DEL324-422); construct: 6×Histag-REV-ERBα LBD (human; residues 281-614 Δ324-422); made in house; host or cells: Escherichia coli; assay: TR-FRET corepressor interaction assay (REV-ERBα LBD, FITC-SMRT peptide); assay type: biochemical; settings: Table 2, read-out: REVERBα agonism (EC50 class, FRET assay)
experimental_endpoint: EC50

Previously resolved entries follow.
[[record]]
compound = "CC(C)Cn1cc(CNS(=O)(=O)CC(C)C)c2ccc(-c3ccncc3)cc21 [Compound 245]"
assay_system = "REV-ERBα LBD (human; residues 281-614 Δ324-422) (Homo sapiens, UniProt P20393, DEL324-422)"
experimental_endpoint = "EC50"
result = "< 500 nM"

[[record]]
compound = "CC(C)Cn1cc(CCNS(=O)(=O)N(C)C)c2ccc(C#N)cc21 [Compound 96]"
assay_system = "REV-ERBα LBD (human; residues 281-614 Δ324-422) (Homo sapiens, UniProt P20393, DEL324-422)"
experimental_endpoint = "EC50"
result = "< 500 nM"

[[record]]
compound = "O=S(=O)(NCc1cn(CC2(C(F)(F)F)CC2)c2cc(-c3ccncc3Cl)c(F)cc12)C1CC1 [Compound 286]"
assay_system = "REV-ERBα LBD (human; residues 281-614 Δ324-422) (Homo sapiens, UniProt P20393, DEL324-422)"
experimental_endpoint = "EC50"
result = "< 500 nM"

[[record]]
compound = "CC(C)c1cc2c(cc1F)c([C@H](NS(=O)(=O)N(C)C)C(F)(F)F)cn2CC(C)(C)C [Example 337]"
assay_system = "REV-ERBα LBD (human; residues 281-614 Δ324-422) (Homo sapiens, UniProt P20393, DEL324-422)"
experimental_endpoint = "EC50"
result = "500 to 3000 nM"

[[record]]
compound = "CC(c1ccccc1)n1cc(CCNS(=O)(=O)N(C)C)c2ccc(Br)cc21 (centres unmarked) [Example 159]"
assay_system = "REV-ERBα LBD (human; residues 281-614 Δ324-422) (Homo sapiens, UniProt P20393, DEL324-422)"
experimental_endpoint = "EC50"
result = "500 to 3000 nM"

[[record]]
compound = "CC(C)(C)Cn1cc([C@H](NS(=O)(=O)C2CC2)C(F)(F)F)c2cc(F)c(-c3ccc(F)cc3C(F)(F)F)cc21 [Example 355]"
assay_system = "REV-ERBα LBD (human; residues 281-614 Δ324-422) (Homo sapiens, UniProt P20393, DEL324-422)"
experimental_endpoint = "EC50"
result = "< 500 nM"

[[record]]
compound = "CC(C)Cn1cc(CCNS(=O)(=O)N(C)C)c2ccc(C(C)(C)C)cc21 [Example 106]"
assay_system = "REV-ERBα LBD (human; residues 281-614 Δ324-422) (Homo sapiens, UniProt P20393, DEL324-422)"
experimental_endpoint = "EC50"
result = "> 3000 nM"


Now for another entry.
**Q:** Endpoint output: EC50 of CC(C)(C)Cc1cn(CCNS(=O)(=O)C2CC2)c2ccc(-c3cccc(F)c3C(F)(F)F)cc12 [Example 227] . Value?
**A:** < 500 nM
